These records show log10 Ki for Acidic phospholipase A2 CM-I (Naja mossambica, UniProt P00602).
PROPERTY NAME: log10 Ki (log10 of the value in µM)

{"columns": ["MOLECULE SMILES", "log10 Ki"],
 "data": [
  ["CCCCCCCCNC(=O)Oc1cccc(OC(=O)C(C)(C)C)c1", 1.74],
  ["CCCCCCCCNC(=O)Oc1cccc(OC(=O)Cc2ccccc2)c1", 1.86],
  ["CCCCCCCCNC(=O)Oc1cccc(OC(=O)CCCCCCC)c1", 1.43],
  ["CCCCCCCCCCCCCCCC(=O)Oc1cccc(OC(=O)NCCCCCCCC)c1", 0.98],
  ["CCCCCCCCNC(=O)Oc1cccc(OC(=O)C(Cl)(Cl)Cl)c1", 2.08],
  ["CCCCCCCCNC(=O)Oc1cccc(OC(=O)C(c2ccccc2)(c2ccccc2)c2ccccc2)c1", 1.58],
  ["CCCCCCCCNC(=O)Oc1cccc(OC(=O)CCCC)c1", 1.88],
  ["CCCCCCCCNC(=O)Oc1cccc(OC(=O)c2ccccc2)c1", 1.98],
  ["CCCCCCCCNC(=O)Oc1cccc(OC(C)=O)c1", 1.99]
]}
